Cited source for all entries: PubChem BioAssay (NCI)

- System: HS 578T breast
- Assay text: NCI tumour cell line growth inhibition, 48 h
The reader will find reported TGI values listed item by item below.
Parameter: TGI

- C[C@@]12C[C@@H](c3ccccc3O1)N1CCCSC1=N2: > 100 µM
- Cl.[O-]c1cccc2cccnc12.[O-]c1cccc2cccnc12.[O-]c1cccc2cccnc12.[O-]c1cccc2cccnc12.[Ti+4]: > 100 µM
- Cc1cc(S(=O)(=O)Nc2nnc3c(Cl)cc(C(F)(F)F)cn23)c(S)cc1Cl: > 100 µM

###

The reader will find reported TGI values listed item by item below.
- Test system: UACC-62 melanoma
- Assay text: NCI tumour cell line growth inhibition, 48 h
Parameter: TGI

* COc1ccc2c(c1)C(=O)/C(=C/c1cccc(OCC(=O)c3ccc([N+](=O)[O-])cc3)c1)CO2 | 9.36 µM
* CCOC(=O)C1=C(C)C2C3C(=O)OC(=O)C3C1(C)C1C(=O)OC(=O)C21 (stereo not drawn) | > 100 µM
* CN(C)c1ccc(/C=N/n2c(CCCCc3n[nH]c(=S)n3/N=C/c3ccc(N(C)C)cc3)n[nH]c2=S)cc1 | > 100 µM

###

- Test system: NCI/ADR-RES ovarian
- Assay text: NCI tumour cell line growth inhibition, 48 h; in the data active means GI50 below about 0.43 µM; inactive means the rest
Classes used: Y for active, N for inactive

• Cc1cc(C(=O)CC(Cl)=C(Cl)Cl)c(Cl)cc1Cl = N
• COc1cc2c(cc1OC)-c1c(c3ccc([N+](=O)[O-])cc3c(=O)n1CCCN=[N+]=[N-])C2=O = N
• COc1cc(C(=O)c2cnc(-c3ccc4cc[nH]c4c3)[nH]2)cc(OC)c1OC = Y
• CN(C)c1ccc2cc3c(cc2c1)Oc1ccccc1N3.[Cl][Zn][Cl] = N
• CN(C)C[C@@H]1CCn2cc(c3ccccc32)C2=C(C(=O)NC2=O)c2cn(c3ccccc23)CCO1 = N
• O=c1oc2ccc(I)cc2c(=O)n1-c1ccc(I)cc1F = N
• COc1ccc2[nH]cc(Cc3c[nH]c4ccc(OC)cc34)c2c1 = N
• COc1ccc2[nH]cc(C3(c4c[nH]c5ccc(OC)cc45)C(=O)Nc4ccc(Cl)cc43)c2c1 = N
• NCCNc1ccc(NCCN)c2c1C(=O)c1c(O)ccc(O)c1C2=O = Y

###

- System: SR leukemia
- Assay text: NCI tumour cell line growth inhibition, 48 h
The reader will find reported TGI values listed item by item below.
Parameter: TGI

- COc1ccc(C2CC(c3ccc4ccccc4c3)=NN2c2nc(O)c(C3=c4cc(Cl)ccc4=NC3=O)s2)cc1 (stereo not drawn): < 0.005 µM
- O=c1oc2c(O)c(O)cc3c(=O)oc4c(O)c(O)cc1c4c23: > 100 µM
- Fc1ccc(-c2c(-c3ccncc3)[nH]c3cccnc23)cc1: > 25 µM

###

- System: M14 melanoma
- Assay text: NCI tumour cell line growth inhibition, 48 h; in the data active means GI50 below about 0.43 µM; inactive means the rest
Classes used: Y = active, N = inactive

• Cn1c2ccccc2c2c(=O)n(CCCC(=O)NCCc3cnc[nH]3)c3c(-c4ccccc4)nnn3c21 = N
• O=C(C(=O)c1cccnc1)c1cccnc1 = N
• O=C(Nc1cccc(-n2ccc3c(NC(=O)c4ccccc4)nccc32)c1)c1ccc(Cl)c(Cl)c1 = Y
• COc1ccc(C(=O)/C=C/c2c(C(F)(F)F)nc3ccccn23)cc1OC = N
• O=C(O)CC(S)C(=O)O.[Li+].[Sb] (configuration not stated) = N
• Cc1ccc2c(c1)C(=O)/C(=C/c1cccc(OCC(=O)c3ccc(Cl)cc3)c1)CS2 = N
• NS(=O)(=O)c1ccc(-n2nc(-c3ccccc3)cc2-c2cc(O)ccc2O)cc1 = N
